# experimental_target: T1, MICB*005 on HCC1534 cells (human, UniProt Q29980 23-383)
# T1 sequence (looked up): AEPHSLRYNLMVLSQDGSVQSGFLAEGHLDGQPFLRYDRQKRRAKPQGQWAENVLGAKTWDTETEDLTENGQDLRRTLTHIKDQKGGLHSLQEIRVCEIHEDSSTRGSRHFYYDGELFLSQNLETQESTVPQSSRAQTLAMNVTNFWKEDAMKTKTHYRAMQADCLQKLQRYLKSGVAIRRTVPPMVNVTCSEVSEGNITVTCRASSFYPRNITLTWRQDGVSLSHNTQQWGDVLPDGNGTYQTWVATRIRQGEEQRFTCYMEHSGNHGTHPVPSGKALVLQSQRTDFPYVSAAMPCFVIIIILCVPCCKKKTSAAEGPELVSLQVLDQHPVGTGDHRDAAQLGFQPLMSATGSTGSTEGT
# protocol_text: cell-based or functional assay

>  <binder>
2E5.2.3 (antibody, V domains shown, Mouse hybridoma antibody; constant regions differ by assay) VH: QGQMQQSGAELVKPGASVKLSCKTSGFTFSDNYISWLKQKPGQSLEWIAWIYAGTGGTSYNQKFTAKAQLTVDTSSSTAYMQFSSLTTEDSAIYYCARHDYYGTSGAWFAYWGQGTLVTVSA VL: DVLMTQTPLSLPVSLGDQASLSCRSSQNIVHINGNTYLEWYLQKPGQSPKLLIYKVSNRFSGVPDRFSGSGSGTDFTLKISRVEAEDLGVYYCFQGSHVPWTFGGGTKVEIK

>  <units_label>
%

>  <% max inhibition of shedding>
60

$$$$
>  <binder>
32D2 (antibody, V domains shown, Mouse hybridoma antibody; constant regions differ by assay) VH: DVHLVESGGGLVQPGGSRKLSCAASGFTFNTFGMNWVRQAPEKGLEWVAYINSGSNTIYYADTVKGRFTISRDNPKNTLFLQMTSLRSEDTAMYYCTRWEPVTGGFSYWGQGTLVTVSA VL: QIVLTQSPAFKSSSLGERVTMTCTASSSISSSYLHWYQQKPGSSPKLWIYTTSNLASGVPARFSGSGSGTSYSLTISTMEAEDAATYYCHQHHRSPFTFGSGTKVEIK

>  <units_label>
%

>  <% max inhibition of shedding>
54

$$$$
